molecular target: T1, human chemokine (C-C motif) receptor 8 (CCR8) (human, UniProt P51685 1-355); experiment: flow cytometry blocking, PBMC CCR8+ CD4+ cells; competitor PE-AB14 (its MFI is read)
T1 construct: On human peripheral blood lymphocytes / PBMC (native) or on human CCR8 GFP-transfected Ba/F3 cells; also called hCCR8; human CCR8
T1 sequence (P51685 whole entry): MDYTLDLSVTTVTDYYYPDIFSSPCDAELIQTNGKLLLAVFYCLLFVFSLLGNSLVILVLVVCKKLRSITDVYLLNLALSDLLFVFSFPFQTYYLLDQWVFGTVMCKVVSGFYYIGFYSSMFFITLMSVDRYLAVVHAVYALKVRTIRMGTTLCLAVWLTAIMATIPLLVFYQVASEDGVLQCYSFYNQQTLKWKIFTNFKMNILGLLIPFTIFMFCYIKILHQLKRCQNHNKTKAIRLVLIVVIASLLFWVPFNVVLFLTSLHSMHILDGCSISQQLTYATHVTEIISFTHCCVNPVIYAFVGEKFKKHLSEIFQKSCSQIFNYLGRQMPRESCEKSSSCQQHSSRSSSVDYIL
result_type: MFI

1) AB3 (antibody, V domains shown, Hybridoma monoclonal; also called antibody 3; clone 3) VH: QVQLKESGPGLVKPSETLSLTCTVSGFSLTSYHISWVRQPPGKGLEWMGVIWGDGKTTYNSALKSRLSISRDTSKSQVFLKMNSLKTEDTATYYCARGGDSGFAYWGQGTLVTVSS VL: DIQMTQSPASLSASLEEIVTITCQASQDIGNWLSWYQQKPGKSPQLLIYGTTNLADGVPSRFSGSRSGTQYSLKISRLQVEDIGIYYCLQAYSVPLTFGSGTKLEIK = 910
2) AB5 (antibody, V domains shown, Hybridoma monoclonal; also called antibody 5; clone 5) VH: QVQLKESGPGLVQPSQTLSLTCTVSGFSLTSYHVSWVRQPPGKGLEWMGVIWTGGSTTYNSLLKSRLSISRDISKSQVFLKMNSLQTEDTATYYCARGGTVVKGGFAYWGQGTLVTVSS VL: DIQMTQSPASLSASLEEIVTITCQASQDIGNRLSWYQQKPGKSPQLLIYGATSLADGVPSRFSGSRSGTQYSLKISRLQVEDIGIYYCLQAYSTPLTFGSGTKLEIK = 925
3) AB11 (antibody, V domains shown, Hybridoma monoclonal; also called antibody 11; clone 11) VH: EVQLVESGGGLVQPKGSLKLSCAASGFAFNTYAMNWVRQAPGKGLEWIARLRSKSNFYATYYADSVKDRFTISRDDSQSMLYLQMNNLKTEDTAVYYCVRGRELGPSYAMDYWGQGTSVTVSS VL: DIVMTQAAPSVPVTPGESVSISCRSSKSLLHSNGNTYLYWFLQRPGQSPQLLIYRMSNLASGVPDRFSGSGSGTAFTLRISRVEAEDVGVYYCMQHLEYPYTFGGGTKLEIK = 11400
4) AB15 (antibody, V domains shown, Hybridoma monoclonal; also called antibody 15; clone 15) VH: EVQLVESGGGLVQPKGSLKLSCAASGFTFNTYAMNWVRQAPGKGLEWVARIRSKSNNYATYYVDSVKDRFTISRDDSQSMLYLQINNLKTEDTAMYYCVRGRELGPYSAMDYWGQGTSVTVSS VL: DIVMTQAAPSVPVTPGESVSISCRSSKSLLHSNGNTYLYWFLQRPGQSPQLLIYRMSNLASGVPDRFSGSGSGTAFTLRISRVEAEDVGLYYCMQHLEYPFTFGGGTKLEIK = 546
5) AB13 (antibody, V domains shown, Hybridoma monoclonal; also called antibody 13; clone 13) VH: EVQLVETGGGLVQPKGSLKLSCAASGFTFNAYAMNWVRQAPGKGLEWVARIRTKSNNYATYYADSVKDRFTISRDDSQTMLYLQMNNLKTEDTAMYYCVRDRATVTTGRAMDYWGQGTSVTVSS VL: DIVMTQAAPSLPVTPGESVSISCRSSKSLLHSNGNTYLYWFLQRAGQSPQLLIYRMSNLASGVPDRFSGSGSGTAFTLRISRVEAEDVGVYYCMQHLEYPFTFGSGTKLEIK = 4550
6) AB1 (antibody, V domains shown, Hybridoma monoclonal (mice or rats immunised); Used purified and PE-conjugated; also called antibody 1; clone 1) VH: QVQLKESGPGLVKPSETLSLTCTVSGFSLTSYHISWVRQPPGKGLEWMGVIWGDGSKTYNSALKSRLSISRDTSKSQVFLKMRSLKTEDTATYYCARGGDSGFAYWGQGTLVTVSS VL: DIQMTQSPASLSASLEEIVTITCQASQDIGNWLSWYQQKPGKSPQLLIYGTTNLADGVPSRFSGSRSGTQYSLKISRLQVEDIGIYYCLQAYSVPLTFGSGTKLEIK = 829
7) AB4 (antibody, V domains shown, Hybridoma monoclonal; also called antibody 4; clone 4) VH: QVQLKESGPGLVKPSETLSLTCTVSGFSLTGYHVSWVRQPPGKGLEWMGVIWGDGRTTYNSALKSRLSISRDTSKSQVFLKMSSLKTEDTATYYCARGGDSGFAYWGQGTLVTVSS VL: DIQMTQSPASLSASLEEIVTITCQASQDIGNWLSWYQQKPGKSPQLLIYGATSLADGVPSRFSGSRSGTQFSLKISRLQVEDIGIYYCLQAYIVPLTFGSGTKLESK = 878
8) AB8 (antibody, V domains shown, Hybridoma monoclonal; also called antibody 8; clone 8) VH: AVQLVESGGGLVQPKESLKISCAASGFIFSNAAMYWVRQAPGKGLQWVARIRTKPKNYATYYIDSVKGRFTISRDDSKSMVYLQMDNLKTEDTAMYYCNTMGLTRAYYFDYWGQGVMVTVSS VL: DIQMTQSPSFLSASVGDRVTINCKASQNINRYLNWYQQKLGEAPKLLIYNANSLQTGIPSRFSGSGSGTDFTLTIRSLQPEDVATYFCLQHNSWPWTFGGGTKLELK = 826
9) AB12 (antibody, V domains shown, Hybridoma monoclonal; also called antibody 12; clone 12) VH: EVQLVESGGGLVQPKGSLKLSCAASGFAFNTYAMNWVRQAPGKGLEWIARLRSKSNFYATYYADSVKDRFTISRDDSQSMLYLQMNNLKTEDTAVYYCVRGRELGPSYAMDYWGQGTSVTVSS VL: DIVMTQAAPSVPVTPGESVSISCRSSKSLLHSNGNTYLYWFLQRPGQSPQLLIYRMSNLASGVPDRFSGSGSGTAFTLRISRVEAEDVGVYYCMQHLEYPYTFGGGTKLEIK = 0
10) AB14 (antibody, V domains shown, Hybridoma monoclonal; also called antibody 14; clone 14) VH: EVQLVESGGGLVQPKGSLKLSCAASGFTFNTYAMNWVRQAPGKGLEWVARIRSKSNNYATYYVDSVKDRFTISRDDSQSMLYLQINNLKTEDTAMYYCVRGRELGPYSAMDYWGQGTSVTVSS VL: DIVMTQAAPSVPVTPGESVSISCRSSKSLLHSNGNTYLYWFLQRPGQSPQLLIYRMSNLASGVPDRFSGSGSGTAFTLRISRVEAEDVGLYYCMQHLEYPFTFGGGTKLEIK = 2980
